// provenance: the DeepSol protein solubility set

- run.description: soluble on expression in E. coli; label from the status in PepcDB or PDB records
experimental.endpoint: soluble on expression in E. coli

seq.string	measured
MGSDKIHHHHHHMSEAINHGIIKSYVDGLTTSTLLMPNLPTAEHAVALAKNYPGLFVGQHTNFLLGKPCADPCMIPSLVDEQGNFHRSSYYRQQKQVTFVYEEVRLETIAQLTRFKELTGHYPEHFDCHSIGDEVVDQVFLELAEEYGLHTTLKYSGEKEYPPQQGYFQVTHLLESGALSYIHEGVSVENFLEDDFGLLRMPESAIAEMHFDVGYLDQFVLDNSSYTTLRCKELATICDPRVRQWFEEQGIERITFGDLKK	not soluble
MWPAIIQQLSEQLGKDFHLVEKEKVHGGDINECFMVSDGIDRYFVKTNQREYLTKFTAEVENLRVMRESNTVQVPEYILHGTSKTHAYLVLNYLATKPLDDAERSYEFGVQLANLHRWGEQKEFGFDIDNYIGATVQPNPWHKKWALFFAEQRIGWQLQLMQEKGVNLTNINEFVEMVKTRLANHSPRPSLLHGDLWFGNVANIVNGPLCFDPACYWGDRECDIALAEWFGGFQPEFFQGYESVWPLDWGYEERKDIYNLYHVLNHYNQFGGHYLDEAQKLIEKILSYLEHHHHHH	not soluble
MAITVKGLTNKLTRTQRRIAVVEFIFSLLFFLPKEAEVIQADFLEYDTKERQLNEWQKLIVKAFSENIFSFQKKIEEQQLKNQLEIQTKYNKISGKKIDLLTTAVVLCALSEQKAHNTDKPLLISEALLIMDHYSQGAEKKQTHALLDKLL	soluble
MGSDKIHHHHHHLRPDLEHYYLIDQYLENKLTGQELAAFEQQLMQDKAFANEVQEQRMLNNLILEAELKSVRSQIEKDLLNMQTPSFFRMHWQWISAGALCLLGSLFFMLPGKKDIQTVSLQKSAASHIEKENNPDIAPVENTTQKTATALNLPAKTDISDIVTRTQATDTAQAGSLVIAGTPVIVPVNTKTEPALETTAGEENKKTDCSLTKITSVITTENSCMNTETGSIHIDKISGGIAPYTYTLNNKKIKEKNVSALGAGIYEVKISDRNGCLSEQKISILEKNCTPAIQQGTKFNINPMLGETCSIAFDTDKKGSLTIYNRSGKIVYRVTNPSLDYIEWNGSDGTGALAEAGLYVYLIDYTDGTKVTGEVTITR	not soluble
MTDIQDVISPKLAVAIANPIFPAVDSLLRSGRHISTEHLDNHAFLMDFQNELDGFYRRYNVELIRAPEGFFYLRPKATTLIARSVLSELEMLVGKVLCYLYLSPERLAQQGIFSTQEVYDELLNLADEGKLLKAVNQRSSGSDLDKQKLAEKVRAAIGRLRRLGMIQTVGEQNSGKFTISESVFRFGAEVRSGDDPLESQARLIRDGEAATPDSLALEKQAQLMENDTKSADEIDEEFDGEQELEHHHHHH	soluble
MLKKIREEFGCIFARDPAAQSFFEILTVYPGVHAVLIHRFSHWLWNHGLHWPARVLSYLARWATGIEIHPGATLGRRLFIDHGMGVVIGETAVIGDDCTLYHGVTLGGTSWQKGKRHPTLGNGVVVGAGAKVLGPITVGDGARIGSNSVVLRTVPAGATVVGIPGHIINPDRRAQEAQRLAIASRLGFDAYGMTPDMPDPVAHAINHMLDHIQALDQQVAKLKEVLRERGIDLEEAPLPDLDDCQLDPGEPQVTVNSSRTGLEHHHHHH	soluble
